Just for reference, patent US20220220152A1 is where these values come from.

- target-of-assay: cIAP2-BIR3 (Homo sapiens)
- Construct: cIAP2-BIR3
- Sequence (Q13489 238-349 limits assumed): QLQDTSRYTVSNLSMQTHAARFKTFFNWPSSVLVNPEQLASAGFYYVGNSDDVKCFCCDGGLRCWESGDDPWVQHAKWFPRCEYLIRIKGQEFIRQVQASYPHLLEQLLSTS
- test-description: cIAP2-BIR3 fluorescence polarization binding assay
- cond: FP, probe AbuRPFK-5FAM (SM5F) 5 nM, cIAP2-BIR3 80 nM, 60 min at 25° C.
pIC50: −log10 of the molar value.
As shown below, each of these compounds has a reported pIC50 value.

INSERT INTO results (smiles_repr, test_result) VALUES
  ('CN[C@@H](C)C(=O)N[C@H](C(=O)N1CCC[C@H]1C(=O)N[C@@H]1CCCc2c(-c3ccc4cc(-c5cccc6c5CCC[C@H]6NC(=O)[C@@H]5CCCN5C(=O)[C@@H](NC(=O)[C@H](C)NC)C5CCCCC5)ccc4c3)cccc21)C1CCCCC1', '7.00 to 8.00'),
  ('CN[C@@H](C)C(=O)N[C@H](C(=O)N1CCC[C@H]1C(=O)N[C@@H]1CCOc2c(-c3cccc4c3OCC[C@H]4NC(=O)[C@@H]3CCCN3C(=O)[C@@H](NC(=O)[C@H](C)NC)C(C)C)cccc21)C(C)C', '7.00 to 8.00'),
  ('CN[C@@H](C)C(=O)N[C@H](C(=O)N1CCC[C@H]1C(=O)N[C@@H]1CCOc2c(-c3cccc4c3OCC[C@H]4NC(=O)[C@@H]3CCCN3C(=O)[C@@H](NC(=O)[C@H](C)NC)C3CCCC3)cccc21)C1CCCC1', '7.00 to 8.00');

Task: Looking for the measured pIC50 of `CN[C@@H](C)C(=O)N[C@H](C(=O)N1CCC[C@H]1C(=O)N[C@@H]1CCCc2c(-c3ccc(-c4cccc5c4CCC[C@H]5NC(=O)[C@@H]4CCCN4C(=O)[C@@H](NC(=O)[C@H](C)NC)C4CCCCC4)cc3)cccc21)C1CCCCC1` , can you help?
Output: 7.00 to 8.00

----------
- target-of-assay: XIAP-BIR3 (Homo sapiens)
- Construct: XIAP-BIR3
- Sequence (P98170 241-356 limits assumed): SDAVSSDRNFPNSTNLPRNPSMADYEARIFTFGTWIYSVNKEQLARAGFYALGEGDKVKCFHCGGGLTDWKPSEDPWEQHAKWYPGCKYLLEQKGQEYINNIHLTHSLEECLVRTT
- test-description: XIAP-BIR3 fluorescence polarization binding assay
- cond: FP, probe AbuRPFK-5FAM (SM5F) 5 nM, XIAP-BIR3 40 nM, 60 min at 25° C.
endpoint: IC50

Consider the reported IC50 for these molecules:
INSERT INTO measurements (molecule, target_of_assay, endpoint, test_result) VALUES
  ('CN[C@@H](C)C(=O)N[C@H](C(=O)N1CCC[C@H]1C(=O)N[C@@H]1CCCc2cc(OCCOCCOc3ccc4c(c3)CCC[C@H]4NC(=O)[C@@H]3CCCN3C(=O)[C@@H](NC(=O)[C@H](C)NC)C3CCCCC3)ccc21)C1CCCCC1 [Compound II-D]', 'XIAP-BIR3 (Homo sapiens)', 'IC50', '> 1000 nM'),
  ('CN[C@@H](C)C(=O)N[C@H](C(=O)N1CCC[C@H]1C(=O)N[C@@H]1CCCc2c(-c3cccc4c3CCC[C@H]4NC(=O)[C@@H]3CCCN3C(=O)[C@@H](NC(=O)[C@H](C)NC)C3CCCCC3)cccc21)C1CCCCC1 [Compound V-N]', 'XIAP-BIR3 (Homo sapiens)', 'IC50', '1 to 10 nM'),
  ('CN[C@@H](C)C(=O)N[C@@H](C)C(=O)N1CCC[C@H]1C(=O)N[C@@H]1CCCc2c(-c3cccc(-c4cccc5c4CCC[C@H]5NC(=O)[C@@H]4CCCN4C(=O)[C@H](C)NC(=O)[C@H](C)NC)c3)cccc21 [Compound III-C]', 'XIAP-BIR3 (Homo sapiens)', 'IC50', '1 to 10 nM'),
  ('CC[C@H](NC(=O)[C@H](C)NC)C(=O)N1CCC[C@H]1C(=O)N[C@@H]1CCCc2c(NC(=O)c3cccc4c3CCC[C@H]4NC(=O)[C@@H]3CCCN3C(=O)[C@H](CC)NC(=O)[C@H](C)NC)cccc21 [Compound VII-C]', 'XIAP-BIR3 (Homo sapiens)', 'IC50', '10 to 100 nM'),
  ('CN[C@@H](C)C(=O)N[C@H](C(=O)N1CCC[C@H]1C(=O)N[C@@H]1CCc2c(OCCOCCOc3cccc4c3CC[C@H]4NC(=O)[C@@H]3CCCN3C(=O)[C@@H](NC(=O)[C@H](C)NC)C3CCCCC3)cccc21)C1CCCCC1 [Compound II-F]', 'XIAP-BIR3 (Homo sapiens)', 'IC50', '10 to 100 nM'),
  ('CN[C@@H](C)C(=O)N[C@H](C(=O)N1CCC[C@H]1C(=O)N[C@@H]1CCCc2c(Nc3cccc4c3CCC[C@H]4NC(=O)[C@@H]3CCCN3C(=O)[C@@H](NC(=O)[C@H](C)NC)C3CCOCC3)cccc21)C1CCOCC1 [Compound VI-A]', 'XIAP-BIR3 (Homo sapiens)', 'IC50', '10 to 100 nM'),
  ('CN[C@@H](C)C(=O)N[C@H](C(=O)N1CCC[C@H]1C(=O)N[C@@H]1CCCc2c(Nc3cccc4c3CCC[C@H]4NC(=O)[C@@H]3CCCN3C(=O)[C@@H](NC(=O)[C@H](C)NC)C(C)C)cccc21)C(C)C [Compound VI-B]', 'XIAP-BIR3 (Homo sapiens)', 'IC50', '10 to 100 nM');

Task: # get_value(readout='IC50', item= CN[C@@H](C)C(=O)N[C@H](C(=O)N1CCC[C@H]1C(=O)N[C@@H]1CCCc2c(OCCCCCOc3cccc4c3CCC[C@H]4NC(=O)[C@@H]3CCCN3C(=O)[C@@H](NC(=O)[C@H](C)NC)C3CCOCC3)cccc21)C1CCOCC1 [Compound I-A] )
Output: 10 to 100 nM
